molecular target: Dimeric Human Ang-2FD conjugated to human IgG1 (human); test: SPR, human IgG1 antibody captured
Sequence (chain, as listed by the source limits assumed): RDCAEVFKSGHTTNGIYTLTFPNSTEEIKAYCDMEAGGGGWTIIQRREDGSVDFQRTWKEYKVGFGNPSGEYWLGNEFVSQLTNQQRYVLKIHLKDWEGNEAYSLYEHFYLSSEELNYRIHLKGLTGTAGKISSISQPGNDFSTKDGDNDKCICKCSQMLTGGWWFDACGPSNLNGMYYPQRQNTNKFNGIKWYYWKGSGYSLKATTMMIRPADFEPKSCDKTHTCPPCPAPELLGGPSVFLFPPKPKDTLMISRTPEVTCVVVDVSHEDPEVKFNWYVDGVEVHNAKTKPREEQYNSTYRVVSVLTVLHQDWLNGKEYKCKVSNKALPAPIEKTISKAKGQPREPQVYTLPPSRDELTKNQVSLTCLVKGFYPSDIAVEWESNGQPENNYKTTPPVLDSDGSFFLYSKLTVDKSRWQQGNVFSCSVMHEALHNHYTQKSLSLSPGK
measurementLabel: T1/2 (h)

| binder | u | numericValue |
| --- | --- | --- |
| H1H742N (antibody, V domains shown) VH: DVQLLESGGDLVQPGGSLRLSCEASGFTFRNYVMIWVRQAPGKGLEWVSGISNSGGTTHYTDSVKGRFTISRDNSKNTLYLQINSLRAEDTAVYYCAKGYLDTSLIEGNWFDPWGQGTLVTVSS VL: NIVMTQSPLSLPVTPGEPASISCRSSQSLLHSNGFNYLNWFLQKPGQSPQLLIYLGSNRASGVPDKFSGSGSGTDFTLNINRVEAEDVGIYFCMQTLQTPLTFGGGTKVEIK | h | 1.08 |
| H1H750N (antibody, V domains shown) VH: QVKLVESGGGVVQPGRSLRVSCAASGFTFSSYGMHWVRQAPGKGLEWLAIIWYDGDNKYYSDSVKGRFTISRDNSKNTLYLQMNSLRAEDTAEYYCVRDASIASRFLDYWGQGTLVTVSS VL: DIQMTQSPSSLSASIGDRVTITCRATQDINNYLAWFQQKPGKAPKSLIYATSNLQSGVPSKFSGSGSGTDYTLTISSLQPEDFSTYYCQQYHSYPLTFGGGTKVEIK | h | 2.12 |
| H1H743N (antibody, V domains shown) VH: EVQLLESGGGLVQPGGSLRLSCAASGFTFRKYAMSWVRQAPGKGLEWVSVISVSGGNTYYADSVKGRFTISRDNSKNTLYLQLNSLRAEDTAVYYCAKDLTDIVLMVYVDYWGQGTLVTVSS VL: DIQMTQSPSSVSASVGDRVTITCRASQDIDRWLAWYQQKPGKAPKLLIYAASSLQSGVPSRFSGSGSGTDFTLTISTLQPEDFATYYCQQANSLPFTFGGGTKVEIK | h | 4.23 |
| H1H728N (antibody, V domains shown) VH: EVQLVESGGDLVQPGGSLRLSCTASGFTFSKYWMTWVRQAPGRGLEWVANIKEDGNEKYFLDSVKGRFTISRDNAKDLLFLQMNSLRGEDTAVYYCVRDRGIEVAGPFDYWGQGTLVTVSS VL: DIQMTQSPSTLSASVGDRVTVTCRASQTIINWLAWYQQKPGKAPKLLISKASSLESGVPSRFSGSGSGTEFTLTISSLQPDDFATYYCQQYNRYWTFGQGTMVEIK | h | 1.35 |
| H1H732N (antibody, V domains shown) VH: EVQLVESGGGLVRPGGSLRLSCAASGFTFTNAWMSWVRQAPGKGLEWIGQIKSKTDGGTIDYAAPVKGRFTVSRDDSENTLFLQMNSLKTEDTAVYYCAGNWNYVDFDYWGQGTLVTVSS VL: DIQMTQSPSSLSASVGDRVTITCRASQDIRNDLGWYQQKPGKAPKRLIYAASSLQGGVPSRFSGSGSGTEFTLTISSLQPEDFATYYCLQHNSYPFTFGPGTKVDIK | h | 0.95 |
